- Test system: Bacillus spizizenii
- ASSAY NAME: Antibacterial activity against Bacillus subtilis ATCC 6633 assessed as growth inhibition after 24 hrs by micro dilution method
- Type: functional
- ASSAY CONDITIONS: ATCC 6633, 24 h
Recorded MIC by entry
PARAMETER MEASURED: MIC

molecule="O=C1Nc2ccccc2C(O)C1(Cc1ccccc1)Cc1ccccc1 (stereo not drawn)" value_measured="100 µg/mL"
molecule="CCN1C(=O)C(Cc2ccc(Cl)cc2)(Cc2ccc(Cl)cc2)C(O)c2cc(Cl)ccc21 (stereo not drawn)" value_measured="3.12 µg/mL"
molecule="COc1ccc(CC2(Cc3ccc(OC)cc3)C(=O)Nc3ccccc3C2O)cc1 (stereo not drawn)" value_measured="100 µg/mL"
molecule="COc1cccc2c1NC(=O)C(Cc1ccccc1)(Cc1ccccc1)C2O (stereo not drawn)" value_measured="100 µg/mL"
molecule="O=C1Nc2ccccc2C(O)C1(Cc1ccccc1Cl)Cc1ccccc1Cl (stereo not drawn)" value_measured="12.5 µg/mL"
molecule="CCOC(=O)CN1C(=O)C(Cc2ccccc2)(Cc2ccccc2)C(O)c2ccccc21 (stereo not drawn)" value_measured="> 200 µg/mL"
molecule="O=C1Nc2ccc(Cl)cc2C(O)C1(Cc1ccc(Cl)cc1)Cc1ccc(Cl)cc1 (stereo not drawn)" value_measured="3.12 µg/mL"
molecule="O=C1Nc2ccc(F)cc2C(O)C1(Cc1ccccc1)Cc1ccccc1 (stereo not drawn)" value_measured="25 µg/mL"
